- experiment-description: Solubility of sonidegib phosphate in various media
- Format: physicochemical
- details: simulated gastric fluid; 0.1N HCl, pH 1.0
- Excerpt: Solubility of Sonidegib Phosphate in Various Media
measurement-type: solubility (µg/mL)

>>> measured_result("Cc1c(C(=O)Nc2ccc(N3C[C@@H](C)O[C@@H](C)C3)nc2)cccc1-c1ccc(OC(F)(F)F)cc1 [Sonidegib Phosphate]")
4

* * *

- experiment-description: Solubility of sonidegib phosphate in various media
- Format: physicochemical
- details: simulated gastric fluid; 0.01N HCl, pH 2.0
measurement-type: solubility (mg/mL)

>>> measured_result("Cc1c(C(=O)Nc2ccc(N3C[C@@H](C)O[C@@H](C)C3)nc2)cccc1-c1ccc(OC(F)(F)F)cc1 [Sonidegib Phosphate]")
0.018

* * *

- experiment-description: Solubility of sonidegib phosphate in various media
- Type: physicochemical
- details: phosphate buffer, pH 7.4, aqueous buffer
measurement-type: solubility

>>> measured_result("Cc1c(C(=O)Nc2ccc(N3C[C@@H](C)O[C@@H](C)C3)nc2)cccc1-c1ccc(OC(F)(F)F)cc1 [Sonidegib Phosphate]")
"< 0.2 µg/mL"

* * *

- experiment-description: Solubility of sonidegib phosphate in various media
- Assay type: physicochemical
- details: phosphate buffer, pH 6.8, aqueous buffer
measurement-type: solubility

>>> measured_result("Cc1c(C(=O)Nc2ccc(N3C[C@@H](C)O[C@@H](C)C3)nc2)cccc1-c1ccc(OC(F)(F)F)cc1 [Sonidegib Phosphate]")
"< 0.2 µg/mL"

* * *

- experiment-description: Solubility of sonidegib phosphate in various media
- Type: physicochemical
- details: water
measurement-type: solubility

>>> measured_result("Cc1c(C(=O)Nc2ccc(N3C[C@@H](C)O[C@@H](C)C3)nc2)cccc1-c1ccc(OC(F)(F)F)cc1 [Sonidegib Phosphate]")
"7 µg/mL"
